Where do the numbers come from? From ChEMBL document CHEMBL1201862.

# System: ACHN
# Measurement Description: NCI tumour cell line growth inhibition, 48 h
Calls of active or inactive are those of the source. Cut-off read from the data, not from the text of the source: active = GI50 up to about 1.1 µM and inactive = higher. Where a SMILES comes first, the peptide text is derived from it. The star is where a group is joined. Cbz = O=C(OCc1ccccc1)*; NHNH2 = NN*
Outcome Measure: GI50

>  <Molecule>
CC(C)(C)C1CCC2(CC1)c1[nH]c3ccccc3c1C1(CCC(C(C)(C)C)CC1)c1[nH]c3ccccc3c12 (stereo unspecified)

>  <GI50>
> 100 µM (inactive)

$$$$
>  <Molecule>
NNC1=Nc2ccc(Cl)cc2C(=S)N2CSCC12 (stereo unspecified)

>  <GI50>
> 100 µM (inactive)

$$$$
>  <Molecule>
Cc1sc2nc(-c3cccc([N+](=O)[O-])c3)c(/C=N/N=C(N)N)n2c1C

>  <GI50>
1.71 µM (inactive)

$$$$
>  <Molecule>
c1ccc(N2N=C(c3ccco3)CC2c2ccco2)cc1 (stereo unspecified)

>  <GI50>
42.6 µM (inactive)

$$$$
>  <Molecule>
COc1cc(/C=C2\N=C(c3ccccc3)N(c3ccc(S(=O)(=O)Nc4nccs4)cc3)C2=O)ccc1O

>  <GI50>
> 100 µM (inactive)

$$$$
>  <Molecule>
CCOC(=O)CCC(NC(=O)OCc1ccccc1)C(=O)NC(CCC(=O)OCC)C(=O)NN (stereo unspecified) (Cbz-Glu(OEt)-Glu(OEt)-NHNH2; configuration not given here)

>  <GI50>
> 100 µM (inactive)

$$$$
>  <Molecule>
Cc1cc(O)c(C(C)C)cc1C(=S)Nc1ccc(Cl)cc1

>  <GI50>
13 µM (inactive)

$$$$
>  <Molecule>
CC1(C(=O)O)CCC2(C)CCC3(C)C(=CC(=O)C4C5(C)CCC(O)C(C)(C)C5CCC43C)C2C1 (stereo unspecified)

>  <GI50>
22.6 µM (inactive)

$$$$
>  <Molecule>
CCSc1c2cc(OC)ccc2nc2ccc(OC)cc12

>  <GI50>
18.6 µM (inactive)

$$$$
>  <Molecule>
Cn1c(=O)c2c(ncn2CCSS(=O)(=O)O)n(C)c1=O

>  <GI50>
> 100 µM (inactive)

$$$$

Here is another molecule to look at.
Recorded GI50 for O=C(c1ccco1)C1CC(c2ccc3ccccc3c2O)=NN1 (stereo unspecified) with ACHN, please?
> 100 µM (inactive)

* * *

Exercise: state measured GI50 for each of the molecules provided.
# Tested on: UACC-257
# Measurement Description: NCI tumour cell line growth inhibition, 48 h
Activity calls are given as the source filed them. Rule as the data show it: active = GI50 up to about 1.1 µM and inactive = higher.

Study these solved cases before continuing.
>  <Molecule>
Nc1ccc(/N=N/c2ccc(/C=C/c3ccc(/N=N/c4ccc(N)c5ccc(S(=O)(=O)O)cc45)cc3S(=O)(=O)O)c(S(=O)(=O)O)c2)c2cc(S(=O)(=O)O)ccc12

>  <Tgt>
UACC-257

>  <Meas Value>
> 100 µM (inactive)

$$$$
>  <Molecule>
COC12CC(O)=C(C(C)=O)C(=O)C1(C)c1c(OC(C)=O)c(C)c(O)c(C(C)=O)c1O2 (stereo not drawn)

>  <Tgt>
UACC-257

>  <Meas Value>
23.6 µM (inactive)

$$$$

Here is another molecule to look at.
Which measured GI50 value corresponds to COCOc1c(C(O[Si](C)(C)C(C)(C)C)c2cnc(Sc3ccccc3)n2C)ccc(OC)c1OC (stereo not drawn) ?
2.25 µM (inactive)
